# systemUnderTest: Human Polθ polymerase domain (aa1820-2590) (Homo sapiens, UniProt O75417)
# Sequence (O75417 1820-2590): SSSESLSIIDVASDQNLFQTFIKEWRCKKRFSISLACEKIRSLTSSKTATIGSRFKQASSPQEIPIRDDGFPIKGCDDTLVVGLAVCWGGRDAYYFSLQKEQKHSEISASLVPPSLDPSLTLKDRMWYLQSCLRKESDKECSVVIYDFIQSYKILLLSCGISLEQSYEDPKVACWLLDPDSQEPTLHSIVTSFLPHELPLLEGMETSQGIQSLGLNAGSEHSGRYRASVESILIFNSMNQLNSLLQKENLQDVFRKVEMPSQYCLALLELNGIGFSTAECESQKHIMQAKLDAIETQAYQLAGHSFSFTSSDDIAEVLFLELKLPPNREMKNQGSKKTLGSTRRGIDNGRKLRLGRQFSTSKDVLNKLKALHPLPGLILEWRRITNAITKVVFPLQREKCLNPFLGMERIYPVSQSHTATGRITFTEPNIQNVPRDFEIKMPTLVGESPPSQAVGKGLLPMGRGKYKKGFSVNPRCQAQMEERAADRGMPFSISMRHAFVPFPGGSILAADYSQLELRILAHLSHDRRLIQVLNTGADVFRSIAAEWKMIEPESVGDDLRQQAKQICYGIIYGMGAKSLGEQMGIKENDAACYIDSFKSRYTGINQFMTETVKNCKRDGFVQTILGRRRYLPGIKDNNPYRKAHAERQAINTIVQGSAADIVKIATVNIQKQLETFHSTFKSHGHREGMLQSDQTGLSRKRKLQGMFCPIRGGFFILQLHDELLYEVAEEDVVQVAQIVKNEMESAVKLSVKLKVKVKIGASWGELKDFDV
Where a name gives a salt, the structure may show the parent alone.
valueType: Ki (nM)
The response must be a number in nM with no trailing unit.

Answered cases to consult:
Prompt: Would you mind telling me what Ki value was observed for C=CCN1C[C@H]2CC(=O)N(c3cc(C(F)(F)F)cc(C)n3)[C@@H]2C(=O)N(C)c2cccc(F)c21 [Example 4] ?
Response: 8.33

Prompt: Please look up its Ki: Cc1cc(C(F)(F)F)cc(N2C(=O)C[C@@H]3CN(CC(=O)N4CCN(C)CC4)c4c(C)cccc4N(C)C(=O)[C@H]32)n1 [Example 93]
Response: 1.19

Let us move to another entry and its Ki.
Prompt: Given the entry Cc1cc(C(F)(F)F)cc(N2C(=O)C[C@@H]3CN(CC[C@H]4CCNC4)c4c(Cl)cccc4N(C)C(=O)[C@H]32)n1 [Example 111, hydrochloride] , report its measured Ki.
Response: 0.619

###

Counter-ions that a name gives are not always drawn.
pKi values recorded for Human Polθ polymerase domain (aa1820-2590) (Homo sapiens, UniProt O75417)
Entry type: numeric. Quantity: pKi, the -log10 of concentration in molar units.

Prompt: // map Cc1cc(C(F)(F)F)cc(N2C(=O)C[C@@H]3CN(Cc4ccc(C5CCCN5C)cc4)c4c(F)cccc4N(C)C(=O)[C@H]32)n1 (single isomer, unassigned) [Example 125a, hydrochloride] to recorded pKi (system: Human Polθ polymerase domain (aa1820-2590) (Homo sapiens, UniProt O75417))
Response: 8.10

Prompt: Find pKi (Human Polθ polymerase domain (aa1820-2590) (Homo sapiens, UniProt O75417)) for the entry Cc1cc(C(F)(F)F)cc(N2C(=O)C[C@@H]3CN(CCN4CC[C@H](N(C)C)[C@H](F)C4)c4c(C)cccc4N(C)C(=O)[C@H]32)n1 [Example 66, dihydrochloride]
Response: 9.03

Next:
Prompt: # query: pKi | item Cc1cc(C(F)(F)F)cc(N2C(=O)C[C@@H]3CN(C[C@H]4CNC[C@@H]4O)c4c(F)cccc4N(C)C(=O)[C@H]32)n1 (relative stereo) | system: Human Polθ polymerase domain (aa1820-2590) (Homo sapiens, UniProt O75417)
Response: 7.76
